# Test system: Escherichia coli ATCC 25922
# assay comment: MIC, broth microdilution (CLSI), reference strain
# run conditions: CAMHB
Square brackets hold non-standard residues; d marks the D form. Peptide text beside a SMILES is read from it. * marks the point of attachment. Abu(4,4,4-F3) = N[C@@H](CC(F)(F)F)C(=O)O; Dab(3S-OH) = NC[C@H](O)[C@H](N)C(=O)O; Gly(cPent) = N[C@H](C(=O)O)C1CCCC1; ΔZArg = N=C(N)NCC/C=C(\N)C(=O)O; Cit = NC(=O)NCCC[C@H](N)C(=O)O; dOrn = NCCC[C@@H](N)C(=O)O; Orn = NCCC[C@H](N)C(=O)O; Dab = NCC[C@H](N)C(=O)O; Dap = NC[C@H](N)C(=O)O; NH(CH2)4NH2 = NCCCCN*
assay endpoint: Ec: MIC Escherichia coli ATCC 25922

Sample records with Ec: MIC Escherichia coli ATCC 25922:
{"compound": "COc1ccc(C[C@H](NC(=O)[C@@H]2CCCN2C(=O)[C@@H](CCCN)NC(=O)CNC(=O)[C@H](CCCN)NC(=O)[C@@H](NC(=O)[C@@H](N)CCCCN)[C@@H](O)CN)C(=O)N[C@@H](CCCCN)C(=O)N/C(=C\\CCNC(=N)N)C(=O)O)cc1 [211.7] (H-K[Dab(3S-OH)][Orn]G[dOrn]PY(Me)K[ΔZArg]-OH)", "assay endpoint": "Ec: MIC Escherichia coli ATCC 25922", "observed result": "++ (≤8 μg/mL)"}
{"compound": "N=C(N)NCC/C=C(\\NC(=O)[C@H](CCCCN)NC(=O)[C@H](Cc1cnc[nH]1)NC(=O)[C@@H]1CCCN1C(=O)[C@@H](CCCN)NC(=O)CNC(=O)[C@@H](NC(=O)[C@@H](NC(=O)[C@@H](N)CCCCN)[C@@H](O)CN)C1CCCC1)C(N)=O [220.1] (H-K[Dab(3S-OH)][Gly(cPent)]G[dOrn]PHK[ΔZArg]-NH2)", "assay endpoint": "Ec: MIC Escherichia coli ATCC 25922", "observed result": "+ (≤32 μg/mL)"}
{"compound": "N=C(N)NCC/C=C(\\NC(=O)[C@H](CCCCN)NC(=O)[C@H](Cc1cnc[nH]1)NC(=O)[C@@H]1CCCN1C(=O)[C@@H](CCCN)NC(=O)CNC(=O)[C@H](CN)NC(=O)[C@@H](NC(=O)[C@@H](N)CCCCN)[C@@H](O)CN)C(=O)O [221.1] (H-K[Dab(3S-OH)][Dap]G[dOrn]PHK[ΔZArg]-OH)", "assay endpoint": "Ec: MIC Escherichia coli ATCC 25922", "observed result": "− (>32 μg/mL)"}
{"compound": "N=C(N)NCC/C=C(\\NC(=O)[C@H](CCCCN)NC(=O)[C@H](CC(F)(F)F)NC(=O)[C@@H]1CCCN1C(=O)[C@@H](CCCN)NC(=O)CNC(=O)[C@H](CCN)NC(=O)[C@@H](NC(=O)[C@@H](N)CCCCN)[C@@H](O)CN)C(=O)O [21.11] (H-K[Dab(3S-OH)][Dab]G[dOrn]P[Abu(4,4,4-F3)]K[ΔZArg]-OH)", "assay endpoint": "Ec: MIC Escherichia coli ATCC 25922", "observed result": "++ (≤8 μg/mL)"}
{"compound": "C[C@H](NC(=O)[C@@H](NC(=O)[C@@H](N)CCCCN)[C@@H](O)CN)C(=O)NCC(=O)N[C@H](CCCN)C(=O)N1CCC[C@H]1C(=O)N[C@@H](CCC(N)=O)C(=O)N[C@@H](CCCCN)C(=O)N/C(=C\\CCNC(=N)N)C(=O)N[C@@H](CCCCN)C(=O)NCCCCN [24.21] (H-K[Dab(3S-OH)]AG[dOrn]PQK[ΔZArg]K-{NH(CH2)4NH2})", "assay endpoint": "Ec: MIC Escherichia coli ATCC 25922", "observed result": "++ (≤8 μg/mL)"}

Next compound, Ec: MIC Escherichia coli ATCC 25922 to be filled in.
Query: Input C[C@H](NC(=O)[C@@H](NC(=O)[C@@H](N)CCCCN)[C@@H](O)CN)C(=O)NCC(=O)N[C@H](CCCN)C(=O)N1CCC[C@H]1C(=O)N[C@@H](CCCNC(N)=O)C(=O)N[C@@H](CCCCN)C(=O)N/C(=C\CCNC(=N)N)C(=O)O [24.116] (H-K[Dab(3S-OH)]AG[dOrn]P[Cit]K[ΔZArg]-OH) , output reported Ec: MIC Escherichia coli ATCC 25922.
Result: − (>32 μg/mL)

----------
In this section we review reported IC50 values for a set of molecules.
# system name: N-type calcium channels (Cav2.2) (Rattus norvegicus (Rat))
# assay comment: biochemical
# Assay type: binding
# run conditions: class symbol; rat cerebral cortex, [125I]ω-conotoxin GVIA 0.001 nM, 30 minutes at room temperature; read-out: IC50 Cav2.2
Square brackets hold non-standard residues; d marks the D form. Peptide text beside a SMILES is read from it. * marks the point of attachment. Phe(3-Me) = Cc1cccc(C[C@H](N)C(=O)O)c1; Dab(3S-OH) = NC[C@H](O)[C@H](N)C(=O)O; His(τ-Me) = Cn1cnc(C[C@H](N)C(=O)O)c1; ΔZArg = N=C(N)NCC/C=C(\N)C(=O)O; NMeK = CN[C@@H](CCCCN)C(=O)O; dOrn = NCCC[C@@H](N)C(=O)O; Pra = C#CC[C@H](N)C(=O)O; Abu = CC[C@H](N)C(=O)O; NH(CH2)4NH2 = NCCCCN*

Sample records with IC50:
{"molecule": "C[C@H](NC(=O)[C@@H](NC(=O)[C@@H](N)CCCCN)[C@@H](O)CN)C(=O)NCC(=O)N[C@H](CCCN)C(=O)N1CCC[C@H]1C(=O)N[C@@H](Cc1cn(C)cn1)C(=O)N[C@@H](CCCCN)C(=O)N/C(=C\\CCNC(=N)N)C(=O)N[C@@H](CCCCN)C(=O)NCCCCN [24.15] (H-K[Dab(3S-OH)]AG[dOrn]P[His(τ-Me)]K[ΔZArg]K-{NH(CH2)4NH2})", "IC50": "< 30 nM"}
{"molecule": "Cc1cccc(C[C@H](NC(=O)[C@@H]2CCCN2C(=O)[C@@H](CCCN)NC(=O)CNC(=O)[C@H](C)NC(=O)[C@@H](NC(=O)[C@@H](N)CCCCN)[C@@H](O)CN)C(=O)N[C@@H](CCCCN)C(=O)N/C(=C\\CCNC(=N)N)C(=O)O)c1 [24.153] (H-K[Dab(3S-OH)]AG[dOrn]P[Phe(3-Me)]K[ΔZArg]-OH)", "IC50": "> 300 nM"}
{"molecule": "C[C@H](NC(=O)[C@@H](NC(=O)[C@@H](N)CCCCN)[C@@H](O)CN)C(=O)NCC(=O)N[C@H](CCCN)C(=O)N1CCC[C@H]1C(=O)N[C@@H](CC(N)=O)C(=O)N[C@@H](CCCCN)C(=O)N/C(=C\\CCNC(=N)N)C(=O)N[C@@H](CCCCN)C(=O)NCCCCN [24.22] (H-K[Dab(3S-OH)]AG[dOrn]PNK[ΔZArg]K-{NH(CH2)4NH2})", "IC50": "< 30 nM"}
{"molecule": "CC[C@H](C)[C@H](NC(=O)[C@@H](NC(=O)[C@@H](N)CCCCN)[C@@H](O)CN)C(=O)NCC(=O)N[C@H](CCCN)C(=O)N1CCC[C@H]1C(=O)N[C@@H](Cc1cnc[nH]1)C(=O)N[C@@H](CCCCN)C(=O)N/C(=C\\CCNC(=N)N)C(=O)O [27.2] (H-K[Dab(3S-OH)]IG[dOrn]PHK[ΔZArg]-OH)", "IC50": "> 300 nM"}
{"molecule": "COc1ccc(C[C@H](NC(=O)[C@@H]2CCCN2C(=O)[C@@H](CCCN)NC(=O)CNC(=O)[C@H](C)NC(=O)[C@@H](NC(=O)[C@@H](N)CCCCN)[C@@H](O)CN)C(=O)N[C@@H](CCCCN)C(=O)N/C(=C\\CCNC(=N)N)C(=O)O)cc1 [24.154] (H-K[Dab(3S-OH)]AG[dOrn]PY(Me)K[ΔZArg]-OH)", "IC50": "> 300 nM"}

Query: Input CC[C@H](NC(=O)[C@@H](NC(=O)[C@@H](N)CCCCN)[C@@H](O)CN)C(=O)NCC(=O)N[C@H](CCCN)C(=O)N1CCC[C@H]1C(=O)N[C@@H](Cc1cnc[nH]1)C(=O)N[C@@H](CCCCN)C(=O)N/C(=C\CCNC(=N)N)C(=O)N[C@@H](CCCCN)C(=O)NCCCCN [28.1] (H-K[Dab(3S-OH)][Abu]G[dOrn]PHK[ΔZArg]K-{NH(CH2)4NH2}) , output reported IC50.
Result: < 30 nM

Query: Input N=C(N)NCCC[C@@H](NC(=O)[C@H](CCCCN)NC(=O)[C@H](Cc1cnc[nH]1)NC(=O)[C@@H]1CCCN1C(=O)[C@@H](CCCN)NC(=O)CNC(=O)[C@@H](NC(=O)[C@@H](NC(=O)[C@@H](N)CCCCN)[C@@H](O)CN)[C@@H](O)CN)C(=O)N[C@@H](CCCCN)C(=O)NCCCCN [22.5] (H-K[Dab(3S-OH)][Dab(3S-OH)]G[dOrn]PHK[dR]K-{NH(CH2)4NH2}) , output reported IC50.
Result: < 30 nM

Query: Input C#CC[C@H](NC(=O)[C@@H]1CCCN1C(=O)[C@@H](CCCN)NC(=O)CNC(=O)[C@H](C)NC(=O)[C@@H](NC(=O)[C@@H](N)CCCCN)[C@@H](O)CN)C(=O)N[C@@H](CCCCN)C(=O)N/C(=C\CCNC(=N)N)C(=O)N[C@@H](CCCCN)C(=O)NCCCCN [24.67] (H-K[Dab(3S-OH)]AG[dOrn]P[Pra]K[ΔZArg]K-{NH(CH2)4NH2}) , output reported IC50.
Result: < 30 nM

Query: Input C[C@H](NC(=O)[C@@H](NC(=O)[C@@H](NC(=O)[C@@H](N)CCCCN)[C@@H](O)CN)[C@@H](O)CN)C(=O)N[C@H](CCCN)C(=O)N1CCC[C@H]1C(=O)N[C@@H](Cc1cnc[nH]1)C(=O)N[C@@H](CCCCN)C(=O)N/C(=C\CCNC(=N)N)C(=O)N[C@@H](CCCCN)C(=O)NCCCCN [22.24] (H-K[Dab(3S-OH)][Dab(3S-OH)]A[dOrn]PHK[ΔZArg]K-{NH(CH2)4NH2}) , output reported IC50.
Result: < 30 nM

Query: Input CN[C@@H](CCCCN)C(=O)N[C@H](C(=O)N[C@H](C(=O)NCC(=O)N[C@H](CCCN)C(=O)N1CCC[C@H]1C(=O)N[C@@H](Cc1cnc[nH]1)C(=O)N[C@@H](CCCCN)C(=O)N/C(=C\CCNC(=N)N)C(=O)N[C@@H](CCCCN)C(=O)NCCCCN)[C@@H](O)CN)[C@@H](O)CN [22.3] (H-[NMeK][Dab(3S-OH)][Dab(3S-OH)]G[dOrn]PHK[ΔZArg]K-{NH(CH2)4NH2}) , output reported IC50.
Result: < 30 nM

Query: Input CC[C@H](C)[C@H](NC(=O)[C@@H](NC(=O)[C@@H](N)CCCCN)[C@@H](O)CN)C(=O)NCC(=O)N[C@H](CCCN)C(=O)N1CCC[C@H]1C(=O)N[C@@H](Cc1cnc[nH]1)C(=O)N[C@@H](CCCCN)C(=O)N/C(=C\CCNC(=N)N)C(=O)N[C@@H](CCCCN)C(=O)NCCCCN [27.1] (H-K[Dab(3S-OH)]IG[dOrn]PHK[ΔZArg]K-{NH(CH2)4NH2}) , output reported IC50.
Result: < 30 nM

Query: Input CC[C@H](NC(=O)[C@@H](NC(=O)[C@@H](N)CCCCN)[C@@H](O)CN)C(=O)NCC(=O)N[C@H](CCCN)C(=O)N1CCC[C@H]1C(=O)N[C@@H](Cc1cnc[nH]1)C(=O)N[C@@H](CCCCN)C(=O)N/C(=C\CCNC(=N)N)C(=O)O [28.2] (H-K[Dab(3S-OH)][Abu]G[dOrn]PHK[ΔZArg]-OH) , output reported IC50.
Result: > 300 nM
